Target: UniProt P35367
Sequence (P35367 whole entry): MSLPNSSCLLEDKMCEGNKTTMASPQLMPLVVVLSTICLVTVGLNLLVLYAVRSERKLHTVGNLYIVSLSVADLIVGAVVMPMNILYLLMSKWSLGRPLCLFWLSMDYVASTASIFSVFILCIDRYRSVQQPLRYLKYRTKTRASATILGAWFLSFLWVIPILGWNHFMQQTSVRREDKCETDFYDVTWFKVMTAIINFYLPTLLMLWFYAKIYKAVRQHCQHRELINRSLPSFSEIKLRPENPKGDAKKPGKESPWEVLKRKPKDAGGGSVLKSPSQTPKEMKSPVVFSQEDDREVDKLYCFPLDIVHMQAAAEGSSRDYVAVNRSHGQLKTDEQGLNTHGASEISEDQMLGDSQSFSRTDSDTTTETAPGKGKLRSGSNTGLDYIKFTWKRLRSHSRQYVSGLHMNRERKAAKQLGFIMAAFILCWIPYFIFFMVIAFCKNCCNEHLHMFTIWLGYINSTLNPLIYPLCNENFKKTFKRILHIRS
Experiment: Affinity for histamine H1-receptor: 3H-pyrilamine binding to membranes of CHO cells transfected with the human H1 receptor
Details: compounds of the invention; 3H-pyrilamine 1.5 nM, 60 min at 25° C., CHO cell membranes; read-out: IC50, affinity for human histamine H1-receptor
reported metric: pIC50
Quick note: pIC50 means taking -log10 of the concentration in moles per liter.

Field: example entries. Status: answers known.
- compound: "CCOCCn1c(C2CCN(CCOC(C)=O)CC2)nc2ccccc21"
  pIC50: 7.27
- compound: "CCOCCOCCN1CCC(c2nc3ccccc3n2CCOCC)CC1"
  pIC50: 6.94
- compound: "CCOCCn1c(C2CCN(CCOCC(=O)OCC)CC2)nc2ccccc21"
  pIC50: 6.77
- compound: "CCOCCn1c(C2CCN(CCCO)CC2)nc2ccccc21"
  pIC50: 7.55
- compound: "CCOCCn1c(C2CCN(CCOC)CC2)nc2ccccc21"
  pIC50: 7.03
- compound: "OCCN1CCC(c2nc3ccccc3n2Cc2ccccn2)CC1"
  pIC50: 6.76
- compound: "CCOCCn1c(C2CCN(CCO)CC2)nc2ccccc21"
  pIC50: 7.60

I have this compound here, COC(=O)COCCN1CCC(c2nc3ccccc3n2CCOc2ccccc2)CC1 [drawing 32] , and I need its recorded pIC50.
6.71
